Entries and their measured protein stability index follow.
# methodSummary: protein stability index of a GFP-peptide fusion (GPS, HEK-293T) (PSI 1-6); higher = more stable;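 further: 24-mer peptide tiles fused after GFP, lentivirally expressed, FACS-sorted into six equal bins by GFP/DsRed ratio, decoded by Illumina sequencing, PSI is the read-weighted mean bin number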
# condition: treatment: DMSO; c terminus: a fixed tail appended
measuredProperty: protein stability index

                          sequenceinput  measurement
 0     FLIPMLEMVPEKRASAGECLRHPW [SRPK2]         2.33
 1      LMVDFAQERQMLQALKFLPVPSAP [FSD1]         2.21
 2     DEEDCPNPEEYNLDEPNAESDYTY [SRPK2]         5.57
 3     VVNKYQINGLQAWLLTHLLWFANA [DHCR7]          2.9
 4     YYLALLLSLLVMVISPVIQLQPTF [NSDHL]         2.68
 5    PEEKIWEELSVLEVFEGREDSIFG [MAGEA6]         4.23
 6      ELIRNIYNSFHKLRDRAERIASRA [SNX8]         2.22
 7    GTKCHGCDFKIDAGDRFLEALGFS [PDLIM7]         2.63
 8     EGASPLSERCQRQLQSLCRGLGLG [FANCE]         3.31
 9    APLVQPSKNDNGKPDSVGLPPCAV [PCMTD1]         5.09
10    SKRKAETWKKNRRQLAYSTVGTPD [STK38L]         4.02
11      AEKLKVQALKDRGLSIPRADTLDE [LSM1]         4.93
12      THADMDGKRTPRGRRGWKKFYAVL [PSD2]         2.65
13  ELVALIPHSDQRLRPQRTKQYVLL [TMEM106C]         2.02
14       KALFTCPFNGDCRITKDNRRHCQA [VDR]         2.84
15    MSALGSPVRAYDFLLKFLLVGDSD [RAB40B]         2.42
16    KKTMSTFHNLVSLNLNYNCISDEL [FBXO39]         2.09
17     FEREPSTSDLGTTDVQKKKLVDAI [RIPK4]         4.62

###

# methodSummary: protein stability index of a GFP-peptide fusion (GPS, HEK-293T) (PSI 1-6); higher = more stable
# condition: treatment: DMSO; c terminus: a fixed tail appended
Where protein stability index equals or exceeds 4, the correct label is 1; where it does not, the label is -1.

In [3]: df
Out[3]:
                          sequenceinput  labelvalue
 0     FKRSVRRNLSYTCRANRNCPIDQH [NR2F2]          -1
 1     NYSQDAADACDIDEIEEVPTTSHR [NETO1]           1
 2      SSRGAPRGGGRGGSRSDRGGGRSR [RBMX]           1
 3      TVQDYQDLIDRGWRRSGKYVYKPV [ATE1]          -1
 4     QQREKLSLIRKHAQTFIALCATDF [CCND2]          -1
 5     SSGPGNSQNSFLVQEVMEEEWNAL [RPAIN]           1
 6      THMYLQSDDEMELEETEPPLEPED [P3H4]           1
 7   NAGLSHTEYQIVTDPGDVPAFLKW [SLC2A12]          -1
 8  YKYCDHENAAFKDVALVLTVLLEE [TOR1AIP2]          -1
 9     SAAYYLNDLDRIAQPNYIPTQQDV [GNAI1]          -1
10   LMISENNFLFRNAASTLTERPCYN [ANKRD40]          -1
11   AASLAGCLGALCENTCLLRGFSGG [TSPAN10]          -1
12     TNSTPLRAACFDGHLEIVKYLVEH [FEM1C]          -1
13     QVVTVHLQTSLENGTRVQEEPELV [FKBP8]           1
14      EAVFLRAVKLYNSGDFRSSTEDME [P3H4]          -1
15     AREVKLLLLGAGESGKSTIVKQMK [GNAI1]          -1
16    PEWDTVTPEAKDLINKMLTINPSK [CAMK2A]           1
17    ELQSLMHQPKGLEEENAQLRGALQ [PBXIP1]           1
18    SFGNCTYNLTILDCLQGIRKGLQH [CDC14A]          -1
19     KSERRNLLEDDSDEEEDFFLRGPS [VAMP4]           1
20      GKGSGGNAGSYIPSYTSWYPSAHQ [DLX1]          -1
21   EDVTVGRRQAVAWLVAMHKAAKLL [ZFYVE21]          -1
22     KNGEWGTVCDDKWDLVSASVVCRE [LOXL2]          -1
23    HHPENGEETVTMLEDVERELDGPK [ZNF396]           1
24   EITTQFLIYASYFALIAVVFLASG [SLC19A2]          -1
25    MSLHGASGGHERSRDRRRSSDRSR [BTBD10]           1
26     DWFTSYVKNVVSGGFPIIRDQIFR [FBXO3]          -1
27     EWASHTAALTNKHSQELTNEKEKA [SASS6]           1
28    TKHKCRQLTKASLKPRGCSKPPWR [SPACA9]          -1
29      EFIRDILIHPELNEGLMKWENRHE [ELF3]          -1
30      SLIFSLKNEVGGLIKALKIFQEKH [TPH1]          -1
31      DKPSEPASEEGSESEGSESSGRSC [SMG5]           1

###

# methodSummary: protein stability index of a GFP-peptide fusion (GPS, HEK-293T) (PSI 1-6); higher = more stable
# condition: treatment: MLN4924 1 uM, 8 h; c terminus: a fixed tail appended
protein stability index values for the sequences below.
measuredProperty: protein stability index

>>> df
                        sequenceinput         measuredproperty  measurement
0    EGNECKKMDMSVLEISGIIMSRVN [PHTF1]  protein stability index         2.46
1     SACSFTNSDMQILTASGDGTCALW [GNB5]  protein stability index         2.15
2     DAMLKEASGPINFTMFLNLFGEKL [MYL5]  protein stability index         2.27
3  KMQQSKNQVVSSTNGELNTDDPTA [CSNK1G3]  protein stability index         5.34
4     RTHTGEKPYTCSVCGKSFSRTTCL [ZNF8]  protein stability index         3.35
5     FDIARIERCNQLLRALKLVITALK [ZER1]  protein stability index         2.41
6     THMYLQSDDEMELEETEPPLEPED [P3H4]  protein stability index         5.38
7    DEVIDVMQENITKVIERGERLDEL [VAMP4]  protein stability index         4.88

###

Documented protein stability index across a set of sequences
# methodSummary: protein stability index of a GFP-peptide fusion (GPS, HEK-293T) (PSI 1-6); higher = more stable
# condition: treatment: MLN4924 1 uM, 8 h; c terminus: a fixed tail appended
measuredProperty: protein stability index

>>> df
                       sequenceinput  measurement
0  SKYQLSEAQLSLIRDIRRRGKNKM [NFE2L1]          3.9
1   SNFNYFYHRETEGEEQAQLLHVSS [KCNA1]         4.03
2  TFRVSSDLIKHQRIHTEEKPYKCQ [ZNF75A]          3.8
3   WLNKEKGIFKIEDSAQVARLWGIR [SPDEF]         2.35
4    YAIKRSKKPLAGSVDEQNALREVY [WEE1]         3.16

###

# methodSummary: protein stability index of a GFP-peptide fusion (GPS, HEK-293T) (PSI 1-6); higher = more stable
# condition: treatment: DMSO; c terminus: a fixed tail appended
measuredProperty: protein stability index

In [3]: df
Out[3]:
                         sequenceinput  measurement
 0   EDSILGDPKKLLTQHFVQENYLEY [MAGEA3]         3.75
 1    RRWKLQVLDLRKNSHQDFWTVWSG [PRAME]         2.46
 2     GEQEFEALMRMLDNLGYRTGYPYR [ADD1]         2.15
 3    NSFGLRFGKREAAPGNHGRSAGRG [KISS1]         4.44
 4   LESLQDGAAESPYSHLGGIDYKTT [RAB40A]         4.44
 5     KQLEFGLKEAPVQDQGYKTLRLRE [ZNF8]          4.3
 6   SLHKGAKRKGIKSSIGRLFGKKEK [PPFIA4]          3.6
 7     TKPQNLNDAYGPPSNFLEIDVSNP [SNX3]         4.46
 8   GSKLEKGHLRGPEIRDWRGPQLEG [ZSWIM9]         3.87
 9     DAMLKEASGPINFTMFLNLFGEKL [MYL5]         2.23
10  ISKGEEPRAGKEESGVSVSNSQPT [SLC29A1]         5.48
11  KPKMYFMTMIVSLAAVAWVGQQVH [ARL6IP1]         2.83
12    LEEKRLTWRLPDVSEAGGSGRLSA [FCHO1]         4.37
13    KFDHIEVRDGPFGFSPIIGRFCGQ [NETO1]          2.3
14    LLKLEQNTCSVITTLKGHEGSVAC [WDFY1]         2.84
15    ILFLNKKDLFEEKIKKSPLTICYP [GNAI1]         2.43
